# Subject of test: T1, human FcRn/b2M (human, UniProt P61769 21-119, biotinylated)
# T1 construct: bought recombinant biotinylated protein (ACRO FCM-H82W4 or Immunitrack ITF01); also called hFcRn; hFcRn/hb2M
# Run description: SPR pH 6.0
Attribute measured: Kd (nM)

Examples with answers:
T026301087 (VHH, name in Kabat numbering, tagless) VHH: EVQLVESGGGVVQPGGSLRLSCAASGFTFSEYDMYWVRQAPGKGLEWVSAISQGGGSTDYADSVKGRFTISRDNSKNTLYLQMNSLRPEDTALYYCAADTLYTSLTWYSYWGQGTLVTVSS
25
T026301111 (VHH, name in Kabat numbering, tagless) VHH: EVQLVESGGGVVQPGGSLRLSCAASGFTFSEYAMYWVRQAPGKGLEWVSAISQGGGSTDYADSVKGRFTISRDNSKNTLYLQMNSLRPEDTALYYCAADTLYTSLTWYSYWGQGTLVTVSS
77
T026301098 (VHH, name in Kabat numbering, tagless; also called T0263018B11 S31D) VHH: EVQLVESGGGVVQPGGSLRLSCAASGFTFSDYAMYWVRQAPGKGLEWVSAISSGGGSTDYADSVKGRFTISRDNSKNTLYLQMNSLRPEDTALYYCAADTLYTSLTWYSYWGQGTLVTVSS
200

(1) T026301070 (VHH, name in Kabat numbering, tagless) VHH: EVQLVESGGGVVQPGGSLRLSCAASGFTFSEYDMYWVRQAPGKGLEWVSAISQGGGSTDYADSVKGRFTISRDNSKNTLYLQMNSLRPEDTALYYCAADTLYTSLTSYSYWGQGTLVTVSS
(2) T026301064 (VHH, name in Kabat numbering, tagless) VHH: EVQLVESGGGVVQPGGSLRLSCAASGFTFSSYDMYWVRQAPGKGLEWVSAISQGGGSTDYADSVKGRFTISRDNSKNTLYLQMNSLRPEDTALYYCAADTLYTSLTWYSYWGQGTLVTVSS
Prompt: # argmax over Kd for candidates 1 and 2 Answer by quoting the chosen item's label.
Completion: 1
(1: 150 nM, 2: 9.4 nM)

Where do the numbers come from? From patent US20240132624A1.
